Target: URAT-1 transporter (Homo sapiens (Human), UniProt Q96S37)
Sequence (Q96S37 other isoform, or with tags, fused parts or gaps): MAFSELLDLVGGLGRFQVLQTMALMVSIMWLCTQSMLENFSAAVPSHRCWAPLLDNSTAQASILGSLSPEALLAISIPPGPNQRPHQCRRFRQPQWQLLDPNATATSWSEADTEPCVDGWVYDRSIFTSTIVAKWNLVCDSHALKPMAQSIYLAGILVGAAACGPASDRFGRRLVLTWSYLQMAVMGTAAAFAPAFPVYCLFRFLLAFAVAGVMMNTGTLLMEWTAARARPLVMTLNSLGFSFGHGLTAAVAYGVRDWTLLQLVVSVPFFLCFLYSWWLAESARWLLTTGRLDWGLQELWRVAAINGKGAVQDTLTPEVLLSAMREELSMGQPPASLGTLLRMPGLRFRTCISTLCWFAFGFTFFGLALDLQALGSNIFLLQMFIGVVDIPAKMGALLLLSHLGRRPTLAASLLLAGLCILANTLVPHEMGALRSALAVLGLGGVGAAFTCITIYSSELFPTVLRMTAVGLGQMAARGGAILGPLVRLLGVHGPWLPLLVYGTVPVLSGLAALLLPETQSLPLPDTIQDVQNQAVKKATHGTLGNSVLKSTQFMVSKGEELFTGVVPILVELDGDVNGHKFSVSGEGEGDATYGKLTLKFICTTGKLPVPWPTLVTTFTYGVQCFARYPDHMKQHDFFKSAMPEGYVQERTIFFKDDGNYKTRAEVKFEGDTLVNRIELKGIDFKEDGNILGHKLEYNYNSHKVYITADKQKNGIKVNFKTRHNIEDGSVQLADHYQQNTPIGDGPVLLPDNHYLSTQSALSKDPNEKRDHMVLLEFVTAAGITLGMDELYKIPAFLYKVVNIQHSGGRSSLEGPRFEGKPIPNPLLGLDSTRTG
Experiment: URAT-1 inhibitor activity: [14C]-uric acid uptake in CHO-URAT1(L)GFP#8 (CHO#8) cells, scintillation proximity
Type: cell-based
Details: inhibition of [14C]-uric acid (30 nM) uptake into CHO#8 cells; compound 0 to 10 μM; 4 parameter logistic fit
Method: The nucleotide sequence for the long isoform of URAT1 (NM_144585) was C-terminally fused to that of enhanced green fluorescent protein (eGFP) (hereinafter referred to as URAT1(L)GFP). The combined sequence was codon-optimised and custom synthesized. […] The potency of the compounds of formula (I) as inhibitors of the URAT-1 transporter was determined as follows. […] Assay ready flasks were generated by the same method, except the cells were not cultured in blasticidin. […]
Mark criterion met for IC50 under 100 nM, criterion not met if at or over.

Cc1ccc(F)c(Oc2ccc(S(=O)(=O)Nc3ccc(F)cn3)cc2C#N)c1F    criterion met
N#Cc1cc(S(=O)(=O)Nc2ccc(F)cn2)ccc1Oc1cc(F)ccc1Cl    criterion not met
Cc1cc(Oc2ccc(S(=O)(=O)Nc3ccc(F)cn3)cc2C#N)ccc1C(C)C    criterion not met
N#Cc1ccc(Oc2ccc(S(=O)(=O)Nc3ccncn3)cc2C#N)cc1Cl    criterion not met
N#Cc1cc(S(=O)(=O)Nc2ccc(F)cn2)ccc1Oc1cccc(F)c1F    criterion not met
N#Cc1c(Cl)cccc1Oc1ccc(S(=O)(=O)Nc2ccccn2)cc1    criterion not met

Exercise: Consider N#Cc1cc(S(=O)(=O)Nc2ccc(F)cn2)ccc1Oc1cncc(Cl)c1 . Does its IC50 lie strictly below 100 nM?
Solution: criterion met

Exercise: Consider N#Cc1cc(S(=O)(=O)Nc2ccc(F)cn2)ccc1Oc1ccc(Cl)cc1I . Does its IC50 lie strictly below 100 nM?
Solution: criterion not met

Exercise: Consider COc1ncc(Oc2ccc(S(=O)(=O)Nc3ccc(F)cn3)cc2C#N)cc1Cl . Does its IC50 lie strictly below 100 nM?
Solution: criterion met

Exercise: Consider N#Cc1cc(S(=O)(=O)Nc2ccc(F)cn2)ccc1Oc1ccc(F)cc1F . Does its IC50 lie strictly below 100 nM?
Solution: criterion met

Exercise: Consider COc1ccccc1Oc1ccc(S(=O)(=O)Nc2ccc(F)cn2)cc1C#N . Does its IC50 lie strictly below 100 nM?
Solution: criterion met

Exercise: Consider COc1cc(C)ccc1Oc1ccc(S(=O)(=O)Nc2ccc(F)cn2)cc1C#N . Does its IC50 lie strictly below 100 nM?
Solution: criterion not met

Exercise: Consider N#Cc1ccc(Oc2cc(F)c(S(=O)(=O)Nc3ncc(F)cn3)cc2Cl)cc1Cl . Does its IC50 lie strictly below 100 nM?
Solution: criterion not met

Exercise: Consider N#Cc1cc(Oc2cc(F)c(S(=O)(=O)Nc3ncccn3)cc2Cl)ccc1F . Does its IC50 lie strictly below 100 nM?
Solution: criterion not met

Exercise: Consider N#Cc1cc(S(=O)(=O)Nc2ccc(F)cn2)ccc1Oc1cccc(F)c1 . Does its IC50 lie strictly below 100 nM?
Solution: criterion not met

Exercise: Consider Cc1cc(C)cc(Oc2ccc(S(=O)(=O)Nc3ccc(F)cn3)cc2C#N)c1 . Does its IC50 lie strictly below 100 nM?
Solution: criterion not met

Exercise: Consider N#Cc1cc(S(=O)(=O)Nc2ccc(F)cn2)ccc1Oc1ccccc1C(F)(F)F . Does its IC50 lie strictly below 100 nM?
Solution: criterion not met

Exercise: Consider N#Cc1cc(S(=O)(=O)Nc2ccc(F)cn2)ccc1Oc1ccc(CO)c(Cl)c1 . Does its IC50 lie strictly below 100 nM?
Solution: criterion met

Exercise: Consider N#Cc1ccc(Oc2ccc(S(=O)(=O)Nc3ccc(F)cn3)cc2C#N)cn1 . Does its IC50 lie strictly below 100 nM?
Solution: criterion not met

Exercise: Consider COc1ccc(Oc2ccc(S(=O)(=O)Nc3ccc(F)cn3)cc2C#N)c(C)c1 . Does its IC50 lie strictly below 100 nM?
Solution: criterion met

Exercise: Consider N#Cc1cc(S(=O)(=O)Nc2ccc(F)cn2)ccc1Oc1cccc(Cl)c1Cl . Does its IC50 lie strictly below 100 nM?
Solution: criterion not met

Exercise: Consider N#Cc1cc(S(=O)(=O)Nc2ccc(F)cn2)ccc1Oc1cc(F)c(F)cc1Cl . Does its IC50 lie strictly below 100 nM?
Solution: criterion not met

Exercise: Consider N#Cc1cc(S(=O)(=O)Nc2ccc(F)cn2)ccc1Oc1c(F)cccc1F . Does its IC50 lie strictly below 100 nM?
Solution: criterion not met

Exercise: Consider N#Cc1c(Cl)cccc1Oc1ccc(S(=O)(=O)Nc2ccncc2)cc1 . Does its IC50 lie strictly below 100 nM?
Solution: criterion not met

Exercise: Consider CC(C)(C)c1ccc(Oc2ccc(S(=O)(=O)Nc3ccc(F)cn3)cc2C#N)cc1 . Does its IC50 lie strictly below 100 nM?
Solution: criterion not met

Data origin: patent US9067922B2
